Data provenance: ChEMBL document CHEMBL4680100

# MEASUREMENT_DESCRIPTION: Intrinsic clearance in mouse liver microsome in presence of NADPH-regenerating system incubated over 60 mins by LC-MS analysis
# CONDITION_SUMMARY: microsomes, 1 h
Each item that follows carries a reported CLH.

{"COMPOUND": "CC1(C)NC(=O)N(c2ccc(C(F)(F)F)nc2)C1=O", "CLH": "< 7 µL/min/mg"}
{"COMPOUND": "O=C1C2CCCN2C(=O)N1c1ccc(F)c(C(F)(F)F)c1 (stereo not drawn)", "CLH": "144 µL/min/mg"}
{"COMPOUND": "CC1(C)NC(=O)N(c2cccnc2)C1=O", "CLH": "< 7 µL/min/mg"}
{"COMPOUND": "O=C1NC2(CCCC2)C(=O)N1c1ccc(F)c(C(F)(F)F)c1", "CLH": "93 µL/min/mg"}
{"COMPOUND": "CC1(C)NC(=O)N(Cc2ccc(F)c(C(F)(F)F)c2)C1=O", "CLH": "11 µL/min/mg"}
{"COMPOUND": "CC1(C)CN(c2ccc(F)c(C(F)(F)F)c2)C(=O)N1", "CLH": "30 µL/min/mg"}
{"COMPOUND": "CC1(C)NC(=O)N(c2cccc(C(F)(F)F)c2)C1=O", "CLH": "< 7 µL/min/mg"}
{"COMPOUND": "Cc1ccc(N2C(=O)NC(C)(C)C2=O)cc1C(F)(F)F", "CLH": "16 µL/min/mg"}
{"COMPOUND": "CC1(C)OC(=O)N(c2ccc(F)c(C(F)(F)F)c2)C1=O", "CLH": "12 µL/min/mg"}
{"COMPOUND": "CC1(C)NC(=O)C(c2ccc(F)c(C(F)(F)F)c2)C1=O (stereo not drawn)", "CLH": "< 7 µL/min/mg"}
{"COMPOUND": "CC1(C)NC(=O)N(c2ccnc(C(F)(F)F)c2)C1=O", "CLH": "< 7 µL/min/mg"}
{"COMPOUND": "CC(C)(NC(=O)Nc1ccc(F)c(C(F)(F)F)c1)C(=O)O", "CLH": "< 7 µL/min/mg"}
{"COMPOUND": "O=C1NC2(CCCCC2)C(=O)N1c1ccc(F)c(C(F)(F)F)c1", "CLH": "122 µL/min/mg"}
{"COMPOUND": "CC1(C)C(=O)NC(=O)N1c1ccc(F)c(C(F)(F)F)c1", "CLH": "< 7 µL/min/mg"}
{"COMPOUND": "CC1(C)NC(=O)N(c2ccc(F)c(C(F)F)c2)C1=O", "CLH": "< 7 µL/min/mg"}
{"COMPOUND": "CC1(C)NC(=O)N(c2ccncc2)C1=O", "CLH": "11 µL/min/mg"}
{"COMPOUND": "CC1(C)NC(=O)N(c2cnccn2)C1=O", "CLH": "< 7 µL/min/mg"}
{"COMPOUND": "CC1(C)NC(=O)N(c2ccc(Cl)c(C(F)(F)F)c2)C1=O", "CLH": "< 7 µL/min/mg"}
{"COMPOUND": "CC1(C)CC(=O)N(c2ccc(F)c(C(F)(F)F)c2)C(=O)N1", "CLH": "< 7 µL/min/mg"}
{"COMPOUND": "CN(C)C(=O)c1cc(N2C(=O)NC(C)(C)C2=O)ccc1F", "CLH": "< 7 µL/min/mg"}
{"COMPOUND": "CC1(C)NC(=O)N(c2ccc([N+](=O)[O-])c(C(F)(F)F)c2)C1=O [NILUTAMIDE]", "CLH": "< 7 µL/min/mg"}
{"COMPOUND": "CC1(C)C(=O)N(c2ccc(F)c(C(F)(F)F)c2)C(=O)N1S(C)(=O)=O", "CLH": "< 7 µL/min/mg"}
{"COMPOUND": "CC1(C)C(=O)N(c2ccc(F)c(C(F)(F)F)c2)C(=O)N1S(=O)(=O)c1ccccc1", "CLH": "160 µL/min/mg"}
